Target: T1, human 4-1BB, full length, on transfected cells (human, UniProt Q07011 24-255)
T1 construct: whole, on cells; also called CHOK1-h4-1BB
T1 sequence (Q07011 24-255): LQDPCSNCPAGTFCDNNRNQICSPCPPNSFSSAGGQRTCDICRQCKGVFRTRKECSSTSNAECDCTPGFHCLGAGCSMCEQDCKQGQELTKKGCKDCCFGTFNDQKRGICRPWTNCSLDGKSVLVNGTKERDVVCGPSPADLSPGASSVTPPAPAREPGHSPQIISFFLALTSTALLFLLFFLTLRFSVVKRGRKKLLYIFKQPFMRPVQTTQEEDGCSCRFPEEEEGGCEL
Assay: FACS, CHOK1-h4-1BB cells; Ab 0.4 ug/ml
The label is YES for average fluorescence intensity below 500 MFI and NO for average fluorescence intensity equal to or exceeding 500 MFI.

170D7F2 (antibody, V domains shown) VH: QVQLVQSGAEVKKPGASVKVSCKASGYTFTSYDINWVRQATGQGLEWMGWMNPNSGNTGYAQKFQGRVTMTRNTSISTAYMELSSLRSEDTAVYYCARETGPFDYWGQGTLVTVSS VL: DIQMTQSPSSLSASVGDRVTITCRASQRINNYLNWYQQKPGKAPKLLIYGASSLQSGVPSRFSGSGSGTDFTLTISSLQPEDFATYYCQQSYSTPFTFGPGTKVDIK : NO
172E3E3 (antibody, V domains shown) VH: QVQLQESGPGLVKPSGTLSLTCAVSGGSISSSNWWSWVRQPPGKGLEWIGEIYHSGSTNYNPSLKSRVTISVDKSKNQLSLNLSSVTAADTAVYYCARQGGVAGTLYWYFDLWGRGTLVTVSS VL: DIVMTQSPLSLPVTPGEPASISCRSSQGLLHSNGYNYLDWYLQKPGQSPQLLIYLGSNRASGVPDRFIGSGSGTDFTLKIRRVEAEDVGVYYCMQVLQTPWTFGQGTKVEIK : YES
52F4G2 (antibody, V domains shown) VH: QVQLQESGPGLVKPSETLSLTCAVSGYSISSGYYWGWIRQPPGKGLEWIGSIFHSGSSYYNPSLKSRVTISVDTSKNQFSLKLRSVTAADTAVYYCARESSGWNCFDYWGQGTLVTVSS VL: DIQMTQSPSTLSASVGDRVTITCRASQTISTWLAWYQQKPGKAPKLLIYKASNLESGVPSRFSGSGSGTEFTLTISSLQPDDFATYYCQQYNSYSITFGQGTRLEIK : NO

Shift focus to the following entry.
Bench note: check whether 100F3C4 (antibody, V domains shown) VH: QVQLQESGPGLVKPSGTLSLTCAVSGGSISSSNWWSWVRQPPGKGLEWIGEIYHSGSTNYNPSLKSRVTMSVDKSKNQFSLELRSVTAADTAVYYCARDAVDAYYYYYGMDVWGQGTTVTVSS VL: DIQLTQSPSFLSASVGDRVTITCRASQGISSYLAWYQQKPGKAPKLLIYAASTLQSGVPSRFSGSGSGTEFTLTISSLQPEDFATYYCQHLNSYPFTFGPGTKVDLK shows average fluorescence intensity below 500 MFI
YES
